system: XF498; experiment: NCI tumour cell line growth inhibition, 48 h
Activity calls are given as the source filed them. Cut-off read from the data, not from the text of the source: active = GI50 up to about 1.1 µM and inactive = higher.
outcome.measure: GI50

- compound: "O=S(=O)(c1ccccc1)N1CCC1c1ccccc1 (stereo not drawn)"
  outcome.measure: "GI50"
  endpoint.value: "51.9 µM (inactive)"
- compound: "CCn1c(=O)c(C(=O)O)c(Cl)c2cc3c(cc21)OCO3"
  outcome.measure: "GI50"
  endpoint.value: "> 100 µM (inactive)"
- compound: "OCC1OC(n2cnc3c2NC=NC[C@H]3O)C(O)C1O (stereo partly drawn)"
  outcome.measure: "GI50"
  endpoint.value: "> 274 µM (inactive)"

----------
system: T47D; experiment: NCI tumour cell line growth inhibition, 48 h
Calls of active or inactive are those of the source. Cut-off read from the data, not from the text of the source: active = GI50 up to about 1.1 µM and inactive = higher.
Collected GI50 values appear next to each entry.

- molecule: "CCOC(CN(C)C(=O)Nc1ccc(Cl)c(Cl)c1)OCC"
  GI50: "> 10 µM (inactive)"
- molecule: "CN(C)c1ccc(/C=C2\\Oc3ccccc3C2=O)cc1"
  GI50: "> 100 µM (inactive)"
- molecule: "CC(=O)Oc1cc(/C=C/c2ccc(O)cc2)cc(OC(C)=O)c1"
  GI50: "51.3 µM (inactive)"
- molecule: "CCC(=O)OCN(C)c1nc(N(C)COC(=O)CC)nc(N(C)COC(=O)CC)n1"
  GI50: "35.3 µM (inactive)"
- molecule: "C/C=C/C[C@@H](C)C(=O)C1C(=O)N[C@@H](C(C)C)C(=O)N(C)CC(=O)N(C)[C@@H](CC(C)C)C(=O)N[C@@H](C(C)C)C(=O)N(C)[C@@H](CC(C)C)C(=O)N[C@@H](C)C(=O)N[C@@H](C)C(=O)N(C)[C@@H](CC(C)C)C(=O)N(C)[C@@H](CC(C)C)C(=O)N(C)[C@@H](C(C)C)C(=O)N1C (stereo not given in full)"
  GI50: "3.03 µM (inactive)"
- molecule: "CC(C)(C)O/N=C/c1cc(NC(=S)c2ccsc2)ccc1Cl"
  GI50: "4.01 µM (inactive)"
- molecule: "COc1cccc(-c2nc(-c3cnccn3)n(Cc3ccccc3)n2)c1"
  GI50: "> 100 µM (inactive)"
- molecule: "CCCCCCCCCCCCCCCCCc1nc(Cl)nc(Cl)c1Cl"
  GI50: "> 100 µM (inactive)"
- molecule: "O=C(O)Cc1ccc(Nc2nc3ccccc3nc2C(=O)O)cc1"
  GI50: "> 100 µM (inactive)"
- molecule: "N#CC[C@@H](O)COc1ccccc1"
  GI50: "> 100 µM (inactive)"
